experiment: PK after single intravenous injection of Peptide 1 in male rats; set-up: species or system male Wistar (CRL: WI(Han)) rats; details: rat, in vivo, iv, 10 mg/kg, single IV 10 mg/kg, initial elimination phase, read-out: CL
Ends that are not written are not given here.
Property Name: clearance (L/h/kg)

>>> df
                                  substance  experimental_result
0  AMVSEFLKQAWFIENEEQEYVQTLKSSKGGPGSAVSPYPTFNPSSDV-NH2 [Peptide 1]                0.666

---

experiment: Clinical test in humans, three 30-min i.v. infusions 8 hours apart, plasma PK; format: in vivo; conditions: human, in vivo, iv, 100 ug/kg, three 30-min i.v. infusions 8 h apart, 100 μg/kg each, mean, after the last infusion
Ends that are not written are not given here.
Property Name: half-life

>>> print(df.to_string())
                                  substance  experimental_result
0  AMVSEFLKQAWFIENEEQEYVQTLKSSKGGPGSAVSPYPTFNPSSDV-NH2 [Peptide 1]               2.18 h

---

experiment: Clinical test in humans, single 30-min i.v. infusion, plasma PK; type: in vivo; conditions: human, in vivo, iv, 100 ug/kg, single 30-min i.v. infusion 100 μg/kg, mean
Ends that are not written are not given here.
Property Name: Vd (L/kg)

                                  substance  experimental_result
0  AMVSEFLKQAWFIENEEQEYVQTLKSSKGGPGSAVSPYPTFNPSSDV-NH2 [Peptide 1]                 0.15

---

assay: Clinical test in humans, three 30-min i.v. infusions 8 hours apart, plasma PK; assay type: in vivo; conditions: human, in vivo, iv, three 30-min i.v. infusions 8 h apart, 200 μg/kg each, GM, read-out: AUC0-t1
Ends that are not written are not given here.
Property Name: AUC (ng·h/mL)

>>> df
                                  substance  unit_symbol  experimental_result
0  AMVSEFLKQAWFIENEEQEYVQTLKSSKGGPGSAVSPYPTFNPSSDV-NH2 [Peptide 1]      ng·h/mL                 2490

---

experiment: Clinical test in humans, three 30-min i.v. infusions 8 hours apart, plasma PK; format: in vivo; details: human, in vivo, iv, 250 ug/kg, three 30-min i.v. infusions 8 h apart, 250 μg/kg each, mean, read-out: AUC0-tau3
Ends that are not written are not given here.
Property Name: AUC (ng·h/mL)

>>> df
                                  substance  unit_symbol  experimental_result
0  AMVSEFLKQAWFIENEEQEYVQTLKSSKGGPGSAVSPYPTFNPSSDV-NH2 [Peptide 1]      ng·h/mL                 2480

---

assay: 14-day repeat IV dose toxicity study with toxicokinetic evaluation on Day 1 and 14 in dogs; format: in vivo, beagle dogs; conditions: dog, in vivo, iv, 10 mg/kg/day, IV 10 mg/kg/day, male, Day 14, read-out: Vz
Ends that are not written are not given here.
Property Name: Vd

In [3]: df
Out[3]:
                                  substance  property_name  experimental_result
0  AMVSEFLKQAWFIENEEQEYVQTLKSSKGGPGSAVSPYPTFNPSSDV-NH2 [Peptide 1]             Vd           0.316 L/kg
